Just for reference, PubChem BioAssay AID1159580 is where these values come from.

experiment: chemical genetic growth profiling, strain panel (AID 1159580);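 also: tested at 20 µM; growth read once vehicle control cultures reached saturation at 30 °C; 1 = growth at the plate median or of vehicle wells; lower values mean less growth of the strain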; conditions: S. cerevisiae deletion strains, growth OD, locus YNL250W, strain rad50, stronger effect = lower value
About 2,000 (36%) of roughly 5,500 compounds were called active. Roughly 18% stayed inconclusive and do not appear here. The list shows a part of the results.
Documented normalized growth across a set of compounds
Write the value as a bare number.

Compound: CCN(CC)CCOc1ccc2c(c1)C(=O)c1cc(OCCN(CC)CC)ccc1-2
normalized growth: 0.983
//
Compound: CC1(C)C(=O)C=C[C@@]2(C)C1=C(O)C(=O)[C@]1(C)C2CC[C@@]2(C)[C@H](c3ccoc3)C[C@H]3O[C@]321 (stereo not given in full)
normalized growth: 0.97
//
Compound: CN/C(=C\[N+](=O)[O-])NCCSCc1ccc(CN(C)C)o1
normalized growth: 0.982
//
Compound: CO[C@H]1/C=C/O[C@@]2(C)Oc3c(C)c(O)c4c(O)c(c(/C=N/N5CCN(C)CC5)c(O)c4c3C2=O)NC(=O)/C(C)=C\C=C\C(C)[C@H](O)[C@@H](C)[C@@H](O)[C@@H](C)[C@@H](OC(C)=O)[C@@H]1C (stereo not given in full)
normalized growth: 1.01

The record that follows has no normalized growth shown yet.
Qu. For the compound shown here, CC1(C)C(=O)C=CC2(C)C3CCC4(C)C(c5ccoc5)CC5OC54C3C(O)CC12 (stereo not given) , give the reported normalized growth.
Ans. 1.02
